# measurement description: AUC (0 to 4 hrs) in rat at 5 mg/kg, iv
# Format: ADME, organism-based
# Set-up: time < 4 hr, dose 5 mg/kg, route intravenous
# condition set: plasma
Record form. Attribute: AUC(0-t) at 4 h. Fill in for each entry.
Numbers only, in µM·h.

{"molecule": "COc1ccc2c(c1)C1CC1(C(=O)N1CC(O)C1)Cn1c-2c(C2CCCCC2)c2ccc(C(=O)NS(=O)(=O)N(C)C)cc21 (racemic)", "assay value": 1.42}
{"molecule": "COc1ccc2c(c1)C1CC1(C(=O)N1C[C@@H](C)N(C)[C@@H](C)C1)Cn1c-2c(C2CCCCC2)c2ccc(C(=O)NS(=O)(=O)N(C)C)cc21 (mixture of isomers)", "assay value": 4.29}
{"molecule": "COc1ccc2c(c1)C1CC1(C(=O)N1CC(C)(O)C1)Cn1c-2c(C2CCCCC2)c2ccc(C(=O)NS(=O)(=O)N(C)C)cc21 (racemic)", "assay value": 9.8}

Please turn your attention to the following entry.
Name the reported AUC(0-t) at 4 h value associated with the molecule COc1ccc2c(c1)C1CC1(C(=O)N1C[C@@H](C)N(C(C)=O)[C@@H](C)C1)Cn1c-2c(C2CCCCC2)c2ccc(C(=O)NS(=O)(=O)N(C)C)cc21 (mixture of isomers)
3.84

----------
# measurement description: Aqueous solubility of the compound at pH 2.2
# condition set: buffer
measured parameter: solubility

Name the reported solubility value associated with the compound COc1ccc2c(c1)[C@@H]1C[C@]1(C(=O)N1[C@@H]3CC[C@H]1CN(C)C3)Cn1c-2c(C2CCCCC2)c2ccc(C(=O)NS(=O)(=O)N(C)C)cc21
> 1.6 mg/mL

----------
# measurement description: Half life in cynomolgus monkey liver microsomes
# Type: ADME, Macaca fascicularis, Microsome
measured parameter: half-life (min)
One number for each entry, in min.

Name the reported half-life value associated with the molecule COc1ccc2c(c1)[C@@H]1C[C@]1(C(=O)N1[C@@H]3CC[C@H]1CN(C)C3)Cn1c-2c(C2CCCCC2)c2ccc(C(=O)NS(=O)(=O)N(C)C)cc21 [BECLABUVIR]
23

----------
# measurement description: AUC (0 to 4 hrs) in rat at 10 mg/kg, po
# Assay type: ADME, organism-based
# Design: time < 4 hr, dose 10 mg/kg, route oral
# condition set: plasma
Record form. Attribute: AUC(0-t) at 4 h. Fill in for each entry.
One number for each entry, in µM·h.

Reference set, count: 3
{"compound": "COc1ccc2c(c1)C1CC1(C(=O)N1C[C@@H](C)N(C(C)=O)[C@@H](C)C1)Cn1c-2c(C2CCCCC2)c2ccc(C(=O)NS(=O)(=O)N(C)C)cc21 (mixture of isomers)", "AUC(0-t) at 4 h / µM·h": 0.277}
{"compound": "COc1ccc2c(c1)C1CC1(C(=O)N1CC(C)(O)C1)Cn1c-2c(C2CCCCC2)c2ccc(C(=O)NS(=O)(=O)N(C)C)cc21 (racemic)", "AUC(0-t) at 4 h / µM·h": 0.139}
{"compound": "COc1ccc2c(c1)C1CC1(C(=O)N1CC(O)C1)Cn1c-2c(C2CCCCC2)c2ccc(C(=O)NS(=O)(=O)N(C)C)cc21 (racemic)", "AUC(0-t) at 4 h / µM·h": 0.041}

Please turn your attention to the following entry.
Name the reported AUC(0-t) at 4 h value associated with the compound COc1ccc2c(c1)C1CC1(C(=O)N1C[C@@H](C)N(C)[C@@H](C)C1)Cn1c-2c(C2CCCCC2)c2ccc(C(=O)NS(=O)(=O)N(C)C)cc21 (mixture of isomers)
0.516

----------
# measurement description: Half life in human liver microsomes
# Format: ADME
measured parameter: half-life (min)
One number for each entry, in min.

Name the reported half-life value associated with the compound COc1ccc2c(c1)[C@@H]1C[C@]1(C(=O)N1[C@@H]3CC[C@H]1CN(C)C3)Cn1c-2c(C2CCCCC2)c2ccc(C(=O)NS(=O)(=O)N(C)C)cc21
53

----------
# target desc: RNA-directed RNA polymerase (Hepacivirus hominis, UniProt O39930, P495A)
# Sequence (O39930 entry or part of it P495A): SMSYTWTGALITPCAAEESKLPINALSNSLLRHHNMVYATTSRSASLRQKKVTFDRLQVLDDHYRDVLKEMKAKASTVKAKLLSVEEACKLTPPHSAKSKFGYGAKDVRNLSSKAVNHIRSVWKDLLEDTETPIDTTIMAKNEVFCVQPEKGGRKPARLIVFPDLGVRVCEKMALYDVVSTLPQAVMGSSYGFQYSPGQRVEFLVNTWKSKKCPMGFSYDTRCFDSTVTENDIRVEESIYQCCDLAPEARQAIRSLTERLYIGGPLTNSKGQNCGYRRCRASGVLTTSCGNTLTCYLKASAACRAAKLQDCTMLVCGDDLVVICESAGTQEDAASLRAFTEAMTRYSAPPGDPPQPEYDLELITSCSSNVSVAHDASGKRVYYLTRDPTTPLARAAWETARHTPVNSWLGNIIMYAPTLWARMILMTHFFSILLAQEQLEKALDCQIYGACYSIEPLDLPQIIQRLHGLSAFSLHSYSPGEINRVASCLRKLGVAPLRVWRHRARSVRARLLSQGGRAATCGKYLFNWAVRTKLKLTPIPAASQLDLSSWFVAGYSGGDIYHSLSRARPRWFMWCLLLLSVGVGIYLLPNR
# measurement description: Inhibition of HCV Con1 genotype 1b NS5B RNA dependent RNA polymerase P495A mutant-mediated incorporation of radiolabeled nucleotides by scintillation proximity assay
measured parameter: EC50

Reference set, count: 3
{"structure smiles string": "CN(C)S(=O)(=O)NC(=O)c1ccc2c(C3CCCCC3)c3n(c2c1)C[C@@]1(C(=O)N2CCOCC2)C[C@H]1c1ccccc1-3", "EC50": "240 nM"}
{"structure smiles string": "CN(C)S(=O)(=O)NC(=O)c1ccc2c(C3CCCCC3)c3n(c2c1)CC(C(=O)N1CCOCC1)=Cc1ccccc1-3", "EC50": "1100 nM"}
{"structure smiles string": "O=C(O)c1ccc2c(C3CCCCC3)c3n(c2c1)C[C@@]1(C(=O)N2CCOCC2)C[C@H]1c1ccccc1-3", "EC50": "380 nM"}

Please turn your attention to the following entry.
Name the reported EC50 value associated with the compound O=C(O)c1ccc2c(C3CCCCC3)c3n(c2c1)C[C@]1(C(=O)N2CCOCC2)C[C@@H]1c1ccccc1-3
890 nM

----------
# target desc: PXR (NR1I2) (Homo sapiens, UniProt O75469)
# Sequence (O75469 whole entry): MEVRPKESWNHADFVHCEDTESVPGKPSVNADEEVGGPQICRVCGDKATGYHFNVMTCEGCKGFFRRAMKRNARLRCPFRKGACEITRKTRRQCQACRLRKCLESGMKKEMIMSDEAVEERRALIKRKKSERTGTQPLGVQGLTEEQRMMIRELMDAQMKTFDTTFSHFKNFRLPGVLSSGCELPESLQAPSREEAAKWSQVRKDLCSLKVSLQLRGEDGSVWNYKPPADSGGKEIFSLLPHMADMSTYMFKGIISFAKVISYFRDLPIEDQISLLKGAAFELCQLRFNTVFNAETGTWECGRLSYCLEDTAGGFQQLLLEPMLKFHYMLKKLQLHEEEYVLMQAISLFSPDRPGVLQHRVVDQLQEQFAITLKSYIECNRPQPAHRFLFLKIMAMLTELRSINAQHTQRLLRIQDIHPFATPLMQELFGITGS
# measurement description: Transactivation of human PXR expressed in human HepG2 cells by luciferase reporter gene assay relative to control
# Type: cell-based
# condition set: HepG2 cells expressing human PXR, read-out: %max
measured parameter: Emax (%)
One number for each entry, in %.

Reference set, count: 2
{"compound": "COc1ccc2c(c1)C1CC1(C(=O)N1CC3CCC(C1)N3C)Cn1c-2c(C2CCCCC2)c2ccc(C(=O)NS(=O)(=O)N(C)C)cc21 (racemic)", "target desc": "PXR (NR1I2) (Homo sapiens, UniProt O75469)", "unit spec": "%", "Emax": 29}
{"compound": "COc1ccc2c(c1)C1CC1(C(=O)N1C3CCC1CN(C)C3)Cn1c-2c(C2CCCCC2)c2ccc(C(=O)NS(=O)(=O)N(C)C)cc21 (racemic)", "target desc": "PXR (NR1I2) (Homo sapiens, UniProt O75469)", "unit spec": "%", "Emax": 21}

Please turn your attention to the following entry.
Name the reported Emax value associated with the compound COc1ccc2c(c1)C1CC1(C(=O)N1CC3CCC(C1)O3)Cn1c-2c(C2CCCCC2)c2ccc(C(=O)NS(=O)(=O)N(C)C)cc21 (racemic)
144

----------
# target desc: Voltage-gated inwardly rectifying potassium channel KCNH2 (Homo sapiens)
# Sequence (Q12809 whole entry): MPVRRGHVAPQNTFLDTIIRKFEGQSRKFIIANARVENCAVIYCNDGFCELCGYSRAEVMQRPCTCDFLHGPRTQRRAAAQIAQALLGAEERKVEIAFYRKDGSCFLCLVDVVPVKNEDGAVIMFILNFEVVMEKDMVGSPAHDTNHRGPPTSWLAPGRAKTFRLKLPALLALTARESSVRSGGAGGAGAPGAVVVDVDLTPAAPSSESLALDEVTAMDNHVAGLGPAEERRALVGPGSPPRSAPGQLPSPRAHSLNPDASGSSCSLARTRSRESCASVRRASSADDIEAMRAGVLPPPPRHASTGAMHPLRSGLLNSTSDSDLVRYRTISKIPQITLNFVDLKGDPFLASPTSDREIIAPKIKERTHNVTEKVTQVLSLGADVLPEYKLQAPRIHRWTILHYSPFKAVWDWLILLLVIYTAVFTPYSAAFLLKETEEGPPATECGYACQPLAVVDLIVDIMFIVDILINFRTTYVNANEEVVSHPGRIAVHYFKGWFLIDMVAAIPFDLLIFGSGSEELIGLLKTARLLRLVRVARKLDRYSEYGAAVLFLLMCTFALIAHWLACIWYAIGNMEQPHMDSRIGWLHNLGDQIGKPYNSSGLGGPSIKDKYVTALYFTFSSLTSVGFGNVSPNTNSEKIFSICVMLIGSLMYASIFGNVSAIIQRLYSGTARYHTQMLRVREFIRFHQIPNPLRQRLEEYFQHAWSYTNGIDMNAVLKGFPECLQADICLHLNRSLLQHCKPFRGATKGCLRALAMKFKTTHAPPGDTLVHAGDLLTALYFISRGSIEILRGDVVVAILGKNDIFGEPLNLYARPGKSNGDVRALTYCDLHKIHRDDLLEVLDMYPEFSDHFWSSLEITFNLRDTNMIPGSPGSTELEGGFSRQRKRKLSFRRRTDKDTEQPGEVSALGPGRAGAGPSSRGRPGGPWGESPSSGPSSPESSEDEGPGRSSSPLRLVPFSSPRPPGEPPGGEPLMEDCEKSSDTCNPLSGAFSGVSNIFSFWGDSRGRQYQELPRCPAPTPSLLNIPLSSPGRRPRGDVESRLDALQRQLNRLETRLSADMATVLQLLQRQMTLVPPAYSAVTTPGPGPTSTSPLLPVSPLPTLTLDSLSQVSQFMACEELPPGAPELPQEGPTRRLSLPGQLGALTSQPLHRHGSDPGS
# measurement description: Inhibition of human ERG by fluorescence-based thallium flux assay
Record form. Attribute: pEC50. Fill in for each entry.
Answers are plain numbers, as −log10 of the molar value.

Reference set, count: 2
{"molecule": "COc1ccc2c(c1)C1CC1(C(=O)N1C3CNCC1C3)Cn1c-2c(C2CCCCC2)c2ccc(C(=O)NS(=O)(=O)N(C)C)cc21 (racemic)", "target desc": "Voltage-gated inwardly rectifying potassium channel KCNH2 (Homo sapiens)", "pEC50": 4.49}
{"molecule": "COc1ccc2c(c1)[C@@H]1C[C@]1(C(=O)N1C3CC1CN(C)C3)Cn1c-2c(C2CCCCC2)c2ccc(C(=O)NS(=O)(=O)N(C)C)cc21", "target desc": "Voltage-gated inwardly rectifying potassium channel KCNH2 (Homo sapiens)", "pEC50": 4.70}

Please turn your attention to the following entry.
Name the reported pEC50 value associated with the molecule CCN1CC2CC(C1)N2C(=O)[C@]12C[C@H]1c1cc(OC)ccc1-c1c(C3CCCCC3)c3ccc(C(=O)NS(=O)(=O)N(C)C)cc3n1C2
5.22

----------
# target desc: UniProt P05177
# Sequence (P05177 whole entry): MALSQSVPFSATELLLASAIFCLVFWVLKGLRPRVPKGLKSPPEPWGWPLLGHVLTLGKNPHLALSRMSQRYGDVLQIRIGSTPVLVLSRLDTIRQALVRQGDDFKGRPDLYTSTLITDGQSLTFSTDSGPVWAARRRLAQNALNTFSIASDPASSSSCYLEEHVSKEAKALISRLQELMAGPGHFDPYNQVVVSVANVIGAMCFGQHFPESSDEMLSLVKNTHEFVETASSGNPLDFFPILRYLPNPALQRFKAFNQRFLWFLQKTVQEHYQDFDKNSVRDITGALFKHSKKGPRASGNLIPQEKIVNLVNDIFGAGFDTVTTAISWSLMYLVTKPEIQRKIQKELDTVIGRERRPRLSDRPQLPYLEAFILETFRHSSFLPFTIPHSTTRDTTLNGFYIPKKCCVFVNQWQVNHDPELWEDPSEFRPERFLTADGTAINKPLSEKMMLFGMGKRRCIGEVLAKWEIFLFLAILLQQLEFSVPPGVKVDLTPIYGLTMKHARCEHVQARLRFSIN
# measurement description: Inhibition of CYP1A2 (unknown origin)
pIC50: −log10 of the molar value.
measured parameter: pIC50

Form: Entry = COc1ccc2c(c1)[C@@H]1C[C@]1(C(=O)N1[C@@H]3CC[C@H]1CN(C)C3)Cn1c-2c(C2CCCCC2)c2ccc(C(=O)NS(=O)(=O)N(C)C)cc21 | System = UniProt P05177 | pIC50 = ____
< 4.40

----------
# measurement description: Inhibition of Hepatitis C virus genotype 4a NS5B
# Parameters: species or system Hepatitis C virus subtype 4a
measured parameter: IC50

Name the reported IC50 value associated with the molecule COc1ccc2c(c1)[C@@H]1C[C@]1(C(=O)N1[C@@H]3CC[C@H]1CN(C)C3)Cn1c-2c(C2CCCCC2)c2ccc(C(=O)NS(=O)(=O)N(C)C)cc21
20 nM

----------
# System: Hepatitis C virus
# measurement description: Antiviral activity against Hepatitis C virus genotype 1b by cell-based assay
# Format: functional, organism-based, Hepacivirus hominis
measured parameter: pEC50
Answers are plain numbers, as −log10 of the molar value.

Name the reported pEC50 value associated with the compound Cn1c(C2(NC(=O)c3ccc4c(C5CCCC5)c(-c5ncc(Br)cn5)n(C)c4c3)CCC2)nc2ccc(/C=C/C(=O)O)cc21 [DELEOBUVIR]
7.77
